Settings: in sec-butanol, 293.13 K
Metric Name: solubility (mole fraction)
Give the figure only, with no unit attached.

Input: Supply recorded solubility (mole fraction) for CS(N)(=O)=O here.
Output: 0.0166

* * *

Conditions: in isopentanol, 313.15 K
Metric Name: solubility (mole fraction)

Input: Name the recorded solubility (mole fraction) of the compound listed here: CS(N)(=O)=O
Output: 0.0288

* * *

Conditions: in isopropyl acetate, 288.14 K
Metric Name: solubility (mole fraction)
Lab note: jot down the number only; don't add units.

Input: Give the measured solubility (mole fraction) for CS(N)(=O)=O
Output: 0.0112
